This collection of values is drawn from the PolyMetriX glass transition set.

Quick reference for glass transition temperature among some molecules
measured quantity: glass transition temperature (°C)

1) *c1cccc(P(=O)(c2ccccc2)c2cccc(-n3c(=O)c4c(-c5cc(C(F)(F)F)cc(C(F)(F)F)c5)c5c(=O)n(*)c(=O)c5c(-c5cc(C(F)(F)F)cc(C(F)(F)F)c5)c4c3=O)c2)c1 (repeat unit); 324.00
2) *Oc1cc(C(C)(C)C)c(Oc2ccc(C(=O)Nc3ccc(C(C)(C)c4ccc(NC(=O)c5ccc(*)cc5)c(C)c4)cc3C)cc2)cc1C(C)(C)C (repeat unit); 275.00
3) *c1ccc(Oc2ccc(N3C(=O)c4c(c(-c5ccccc5)c(-c5ccc(-c6c(-c7ccccc7)c7c(c(-c8ccccc8)c6-c6ccccc6)C(=O)N(*)C7=O)cc5)c(-c5ccccc5)c4-c4ccccc4)C3=O)cc2)cc1 (repeat unit); 413.00
4) *CC(*)(CC(=O)OC(C)C)C(=O)OC12CC3CC(CC(C3)C1)C2 (repeat unit); 180.00
5) *c1ccc(Cc2ccc(-n3c(=O)c4cc5c(=O)n(*)c(=O)c5cc4c3=O)cc2)cc1 (repeat unit); 351.00
6) *Oc1ccc(C(=O)Nc2ccc(C(c3ccc(NC(=O)c4ccc(OC(=O)c5cccc(C(*)=O)c5)cc4)cc3)(C(F)(F)F)C(F)(F)F)cc2)cc1 (repeat unit); 227.00
7) *CC(OCC)C1C(=O)OC(=O)C1* (repeat unit); 146.00

---

Quick reference for glass transition temperature among some molecules
measured quantity: glass transition temperature (°C)

1. *CC(*)c1ccc2c(c1)OCO2 (repeat unit); 138.00
2. *c1cccc(N2C(=O)c3cccc(Oc4c(C)cc(-c5cc(C)c(Oc6cccc7c6C(=O)N(*)C7=O)c(C)c5)cc4C)c3C2=O)c1 (repeat unit); 311.00
3. *C(=O)Oc1ccc(-c2ccc(OC(=O)c3ccc4c(c3)C(=O)N(c3ccc(Oc5ccc(N6C(=O)c7ccc(*)cc7C6=O)cc5)cc3)C4=O)cc2)cc1 (repeat unit); 232.00
4. *CCC(=O)Nc1ccc(NC(=O)CCN2C(=O)c3ccc(C(=O)c4ccc5c(c4)C(=O)N(*)C5=O)cc3C2=O)cc1 (repeat unit); 237.00
5. *OC(=O)OCCOCCOC(=O)OC1COC2C(*)COC12 (repeat unit); 46.50
6. *Oc1ccc(S(=O)(=O)c2ccc(Oc3ccc(C(C)(C)c4ccc(*)cc4)cc3)cc2N)c(N)c1 (repeat unit); 210.50
7. *Oc1ccc(C(C)(c2ccccc2)c2ccc(OC(*)=O)cc2)cc1 (repeat unit); 179.00
8. *Nc1cc(NC(=O)c2ccc(C(*)=O)cc2)cc(-c2nnc(-c3ccccn3)o2)c1 (repeat unit); 230.00
9. *C(=O)c1ccc2c(c1)C(=O)N(c1ccc(C3(c4ccc(N5C(=O)c6ccc(*)cc6C5=O)cc4)c4ccccc4-c4ccccc43)cc1)C2=O (repeat unit); 376.00
10. *CCN* (repeat unit); -35.77
11. *OC(COC(=O)c1ccc(C(*)=O)c(OC)c1)COc1ccc(/N=N/c2ccc(C#N)cc2)cc1 (repeat unit); 120.00
12. *CC(*)(F)C(=O)OCCC(F)(F)C(F)(F)C(F)(F)C(F)(F)F (repeat unit); 6.00
13. *c1ccc(Sc2ccc(Sc3ccc(Sc4ccc(N5C(=O)c6ccc(Sc7ccc(Sc8ccc(Sc9ccc%10c(c9)C(=O)N(*)C%10=O)cc8)cc7)cc6C5=O)cc4)cc3)cc2)cc1 (repeat unit); 176.5
14. */C(=C(/*)c1ccc([Si](C(C)C)(C(C)C)C(C)C)cc1)c1ccccc1 (repeat unit); 250.00
15. *CCCCCCOC(=O)OCCCCCCCCCCCCOC(=O)OCCCCCCn1c(=O)c2cc3c(=O)n(*)c(=O)c3cc2c1=O (repeat unit); -9.00

---

Quick reference for glass transition temperature among some compounds
measured quantity: glass transition temperature

1) *CC(*)n1c2ccccc2c2cc3ccccc3cc21 (repeat unit); 253.00 °C
2) */C=C/c1cc(OCCCCCCCCCCCCCCCC)c(/C=C/c2ccc(*)cc2)cc1OCCCCCCCCCCCCCCCC (repeat unit); 33.00 °C
3) *C(=O)c1ccc2c(c1)C(=O)N(c1ccc(-c3cc(-c4ccc(OC)cc4)cc(-c4ccc(N5C(=O)c6ccc(*)cc6C5=O)cc4)n3)cc1)C2=O (repeat unit); 331.00 °C
4) *C(=O)c1ccc2c(c1)C(=O)N(c1cc(C(=O)c3ccccc3)cc(N3C(=O)c4ccc(*)cc4C3=O)c1)C2=O (repeat unit); 282.00 °C
5) *c1ccc(/C=C/c2ccc(-n3c(=O)c4cc5c(=O)n(*)c(=O)c5cc4c3=O)cc2S(=O)(=O)[O][Na])c(S(=O)(=O)[O][Na])c1 (repeat unit); 228.00 °C
6) *c1c(C)cc(-c2cc(C)c(N3C(=O)c4ccc(Oc5cc6ccccc6cc5Oc5ccc6c(c5)C(=O)N(*)C6=O)cc4C3=O)c(C)c2)cc1C (repeat unit); 308.00 °C
7) *CCCCCCCNC(=O)C(OC)C(OC)C(=O)N* (repeat unit); 87.00 °C
8) *C(F)(F)C(*)(F)OC(F)C(F)F (repeat unit); 35.00 °C

---

Quick reference for glass transition temperature among some molecules
measured quantity: glass transition temperature (°C)

1. *c1ccc(S(=O)(=O)c2ccc(Oc3ccc(-c4nn(*)c(=O)c5ccccc45)c(F)c3)cc2)cc1 (repeat unit); 283.00
2. *CC(*)c1ccc(C(O)CCN2CCCCC2)cc1 (repeat unit); 54.00
3. *CCOC(=O)C1C2C=CC(C2)C1C(=O)O* (repeat unit); 0.00
4. *CCCCCCOC(=O)OCCCCCCCCCCCCOC(=O)OCCCCCCOc1ccc(Oc2ccc(O*)cc2)cc1 (repeat unit); -22.00
5. *c1ccc(Oc2ccc(Oc3ccc(N4C(=O)c5ccc(Oc6ccc(Sc7ccc(Oc8ccc9c(c8)C(=O)N(*)C9=O)cc7)cc6)cc5C4=O)cc3)cc2)cc1 (repeat unit); 201.00
6. *Oc1ccc(C2(c3ccc(Oc4ccc(-c5ccc(-c6ccc(*)c(C(F)(F)F)c6)cc5)cc4C(F)(F)F)cc3)c3ccccc3-c3ccccc32)cc1 (repeat unit); 237.00
7. *Nc1ccc(CC(C)(C)NC(=O)CCC(*)=O)cc1 (repeat unit); 158.00
8. *Oc1ccc(NC(=O)c2ccc(Oc3ccc(C(C)(C)c4ccc(C(C)(C)c5ccc(Oc6ccc(C(=O)Nc7ccc(Oc8ccc(-c9ccc(*)cc9)cc8)cc7)cc6)cc5)cc4)cc3)cc2)cc1 (repeat unit); 177.00
9. *C(=O)Nc1cc(NC(=O)c2ccc3c(c2)C(=O)N(c2cc(-c4nnc(-c5ccccn5)o4)cc(N4C(=O)c5ccc(*)cc5C4=O)c2)C3=O)cc(-c2nnc(-c3ccccn3)o2)c1 (repeat unit); 164.00
10. *c1ccc2c(c1)C(=O)N(c1ccc(Oc3ccc(C(=O)c4cccc(N5C(=O)c6ccc(C(*)(C(F)(F)F)C(F)(F)F)cc6C5=O)c4)cc3)c(C(F)(F)F)c1)C2=O (repeat unit); 222.00
11. *c1ccc(Oc2ccc(N3C(=O)CC(C4C=C(C)C5C(=O)N(*)C(=O)C5C4)C3=O)cc2)cc1 (repeat unit); 278.00
12. *C(=O)c1ccc2c(c1)C(=O)N(c1ccc(-c3ccccc3N3C(=O)c4ccc(*)cc4C3=O)cc1)C2=O (repeat unit); 305.00
13. *CC(*)N1CCCC1=O (repeat unit) [Poly(N-vinyl pyrrolidone)]; 145
14. *CC(*)OC(=O)c1cccc([Si](C)(C)C)c1 (repeat unit); 80.00

---

Quick reference for glass transition temperature among some compounds
measured quantity: glass transition temperature (°C)

1. *Oc1ccc(S(=O)c2ccc(Oc3ccc(/C=N/N=C/c4ccc(*)cc4)cc3)cc2)cc1 (repeat unit); 151.00
2. *c1ccc(OCCCCCCCCCCCOC(=O)c2cccc(C(=O)OCCCCCCCCCCCOc3ccc(-c4nnc(*)s4)cc3)c2)cc1 (repeat unit); 68.00
3. *Oc1ccc(Oc2ccc(OC(=O)c3ccccc3-c3ccccc3C(*)=O)cc2)cc1 (repeat unit); 147.00
4. *CC(*)(CC(=O)OCCOCCOCCOC)C(=O)OCCOCCOCCOC (repeat unit); -19.00

---

Grouping key: glass transition temperature. Bins: low bin = under 80 °C, mid bin = from 80 °C up to 200 °C, high bin = 200 °C and over

1. *Oc1ccc(CNC(=O)c2cccc(C(=O)NCc3ccc(OC4COC5C(*)COC45)cc3)c2)cc1 (repeat unit); mid bin
2. *OC(=O)c1ccc(C(F)(F)C(F)(F)C(F)(F)c2ccc(C(*)=O)cc2)cc1 (repeat unit); mid bin
3. *CCCOC(=O)O* (repeat unit); low bin
4. *C(=O)c1ccc(Oc2ccc(-c3ccc(Oc4ccc(C(=O)c5ccc6c(c5)C(=O)N(c5ccc(N7C(=O)c8ccc(*)cc8C7=O)cc5)C6=O)cc4)cc3)cc2)cc1 (repeat unit); high bin
5. *c1ccc2c(c1)Sc1cc(-c3ccc(-c4ccc(*)s4)s3)ccc1N2CCCCCCCCCCCC (repeat unit); mid bin
6. *CC(*)c1ccccc1C(=O)N(C)C (repeat unit); mid bin
7. *Oc1cc(OC(=O)c2ccc(OCCCCC)cc2)c(OC(=O)CCCC(*)=O)cc1OC(=O)c1ccc(OCCCCC)cc1 (repeat unit); low bin
8. *CC(C)(CO)CO* (repeat unit); low bin
9. *Oc1ccc(CC2(Cc3ccc(*)cc3)c3ccccc3-c3ccccc32)cc1 (repeat unit); mid bin
10. *Cc1cccc(COC(=O)Nc2ccc(Cc3ccc(NC(=O)O*)cc3)cc2)c1 (repeat unit); mid bin
11. *c1ccc2c(c1)C(=O)N(c1ccc(Oc3ccc4ccc(Oc5ccc(N6C(=O)c7ccc(C(*)(C(F)(F)F)C(F)(F)F)cc7C6=O)cc5)cc4c3)cc1)C2=O (repeat unit); high bin
12. *c1ccc(Oc2cccc(N3C(=O)c4ccc(-c5cccc6c5C(=O)N(*)C6=O)cc4C3=O)c2)cc1 (repeat unit); high bin
13. *CCCCCCCCNC(=O)CCCCCCCCCCCCCCCCC(=O)N* (repeat unit); low bin
14. */C=C(/*)c1c(F)c(F)c(CCCC)c(F)c1F (repeat unit); mid bin
15. *Oc1ccc(S(=O)(=O)c2ccc(Oc3ccc(-c4ccc(-c5ccc(*)cc5)cc4)cc3)cc2)cc1 (repeat unit); high bin
